# TARGET_OR_SYSTEM: SARS-CoV FP peptide (SARS-CoV), P59594
# Sequence (P59594 794-813 limits assumed): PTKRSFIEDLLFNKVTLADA
# RUN_DESCRIPTION: peptide ELISA
Provide the reported EC50 of each item.

fp.004 (antibody, V domains shown) VH: VQLVESGGGVVQPGTSLRLSCVASGFTFSNYAMHWVRQAPGKGLEWVAIISFDTRNTASAASVKGRFNISRDNSKNSLYLQMNSLRPEDTGVYYCARDLFLSDYDSRGYDPITGGFDCWGQGTLVTVSS VL: EIVMTQSPAALSVSPGEGATLSCRASQSVGSRLAWYQQKLGRPPRLLIYGASTRATGIPARFSGSGSGTEFTLTISSLQSEDFAVYYCQQYNDWPLLTFGGGTKVKIK ... 0.03 µg/mL
fp.006 (antibody, V domains shown) VH: VQLVESGGGVVQPGGSLRLSCAASGFNFNNYALHWVRQAPGKGLEWVAIISYEARNKKYGVSVMGRFSISRDNSKSIMYLEMNSLRVEDTGVYYCARDLFLSDYDRSGYDPTRGGFDHWGQGTLVTVSS VL: EIVMTQSPATLSVSPGERATLSCRASQSVSSSLAWYQHRFGQAPRLLISGASTRATGIPGRFSGSGSGTEFTLTISSLQSEDVAVYYCQQYGDWPLVTFGGGTKVEIK ... 0.0157 µg/mL

Next, consider the following binder.
Lab note: measured EC50 of fp.009 (antibody, V domains shown) VH: VQLVESGGGVVQPGTSLTLSCEASGFTFSNYAMHWVRQAPGKGLEWVAIISFDTRNKKFAGSVQGRFSISRDNAKNSIYLQMNNLRPEDTGIYYCARDVFLSDYDSRGFDRTRGGFDYWGQGTLVTVSS VL: EIVMTQSPATLSVSPGEKATLSCRASESVGSSLAWYQQKLGQAPRLLIYGASTRATGIPARFSGSGSGAEFTLTISSLQSEDFAIYYCQQYGDWPLLTFGGGTKVEIK was 0.0251 µg/mL
